- TARGET_ENTITY: Hap1 (UniProt P0CE41)
- Sequence (P0CE41 whole entry): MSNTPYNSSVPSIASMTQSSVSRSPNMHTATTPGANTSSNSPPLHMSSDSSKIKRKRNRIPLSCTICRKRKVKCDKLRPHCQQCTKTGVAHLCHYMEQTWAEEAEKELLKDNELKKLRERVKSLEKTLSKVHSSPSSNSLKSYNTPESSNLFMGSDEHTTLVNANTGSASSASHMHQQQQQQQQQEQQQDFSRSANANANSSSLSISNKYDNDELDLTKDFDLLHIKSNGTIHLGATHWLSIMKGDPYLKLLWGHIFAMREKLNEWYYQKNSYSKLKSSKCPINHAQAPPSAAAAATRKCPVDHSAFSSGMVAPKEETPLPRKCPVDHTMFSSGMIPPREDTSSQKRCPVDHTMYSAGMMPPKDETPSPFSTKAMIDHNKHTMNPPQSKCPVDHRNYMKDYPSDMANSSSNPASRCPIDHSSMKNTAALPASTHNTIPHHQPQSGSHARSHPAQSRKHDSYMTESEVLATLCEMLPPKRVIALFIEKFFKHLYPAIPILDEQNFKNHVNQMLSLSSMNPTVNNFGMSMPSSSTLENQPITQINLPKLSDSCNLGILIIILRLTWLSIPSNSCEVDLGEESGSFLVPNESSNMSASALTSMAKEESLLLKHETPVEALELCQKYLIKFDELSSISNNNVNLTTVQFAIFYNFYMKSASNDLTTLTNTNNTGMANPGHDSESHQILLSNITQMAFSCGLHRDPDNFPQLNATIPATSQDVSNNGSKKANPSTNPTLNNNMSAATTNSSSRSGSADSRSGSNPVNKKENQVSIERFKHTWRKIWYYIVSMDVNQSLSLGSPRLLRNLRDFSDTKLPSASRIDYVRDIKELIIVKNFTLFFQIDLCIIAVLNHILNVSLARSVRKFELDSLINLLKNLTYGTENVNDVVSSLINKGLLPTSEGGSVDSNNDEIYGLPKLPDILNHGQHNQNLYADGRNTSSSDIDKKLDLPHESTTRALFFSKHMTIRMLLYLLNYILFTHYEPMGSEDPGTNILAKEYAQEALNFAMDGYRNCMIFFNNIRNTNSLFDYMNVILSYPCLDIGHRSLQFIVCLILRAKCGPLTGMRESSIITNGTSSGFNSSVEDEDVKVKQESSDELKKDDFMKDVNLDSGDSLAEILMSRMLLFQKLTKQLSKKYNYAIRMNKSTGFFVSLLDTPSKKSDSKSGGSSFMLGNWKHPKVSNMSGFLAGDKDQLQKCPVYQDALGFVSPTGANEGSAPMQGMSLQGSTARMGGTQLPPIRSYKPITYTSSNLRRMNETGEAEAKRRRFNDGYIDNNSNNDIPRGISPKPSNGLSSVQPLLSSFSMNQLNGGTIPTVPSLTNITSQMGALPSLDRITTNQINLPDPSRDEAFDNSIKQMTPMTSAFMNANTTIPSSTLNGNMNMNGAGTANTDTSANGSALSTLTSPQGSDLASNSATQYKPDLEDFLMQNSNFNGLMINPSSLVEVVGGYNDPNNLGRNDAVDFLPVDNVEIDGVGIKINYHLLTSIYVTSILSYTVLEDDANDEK
- PROCEDURE_DETAILS: PBM E-score (8-mer binding enrichment) (E-score (-0.5 to 0.5)); higher = stronger / more preferred TF binding
- PARTICULARS: protein concentration: 200 nM; construct: GST-DNA-binding domain
Over roughly 33,000 sequences, “E-score (-0.5 to 0.5)” has its median near -0.053; the highest 2% begin near 0.37. This is one part of a sample in which the highest values are shown more often than they occur.
Would you please tag the item class 1 when its PBM E-score is 0.2 or above, and class 0 when it is below?

ACCCTGTA | class 0

Query string: Determine whether measured PBM E-score meets or exceeds 0.2 for GTGCGAGA
Result string: class 0

Query string: Determine whether measured PBM E-score meets or exceeds 0.2 for CTGCCGGC
Result string: class 1

Query string: Determine whether measured PBM E-score meets or exceeds 0.2 for GGGCCGGA
Result string: class 1

Query string: Determine whether measured PBM E-score meets or exceeds 0.2 for ACGGAAAG
Result string: class 1

Query string: Determine whether measured PBM E-score meets or exceeds 0.2 for GGATATAC
Result string: class 1

Query string: Determine whether measured PBM E-score meets or exceeds 0.2 for CTTCGAGA
Result string: class 0
